Target Entity: Jak2 (UniProt O60674)
Sequence (O60674 whole entry, looked up): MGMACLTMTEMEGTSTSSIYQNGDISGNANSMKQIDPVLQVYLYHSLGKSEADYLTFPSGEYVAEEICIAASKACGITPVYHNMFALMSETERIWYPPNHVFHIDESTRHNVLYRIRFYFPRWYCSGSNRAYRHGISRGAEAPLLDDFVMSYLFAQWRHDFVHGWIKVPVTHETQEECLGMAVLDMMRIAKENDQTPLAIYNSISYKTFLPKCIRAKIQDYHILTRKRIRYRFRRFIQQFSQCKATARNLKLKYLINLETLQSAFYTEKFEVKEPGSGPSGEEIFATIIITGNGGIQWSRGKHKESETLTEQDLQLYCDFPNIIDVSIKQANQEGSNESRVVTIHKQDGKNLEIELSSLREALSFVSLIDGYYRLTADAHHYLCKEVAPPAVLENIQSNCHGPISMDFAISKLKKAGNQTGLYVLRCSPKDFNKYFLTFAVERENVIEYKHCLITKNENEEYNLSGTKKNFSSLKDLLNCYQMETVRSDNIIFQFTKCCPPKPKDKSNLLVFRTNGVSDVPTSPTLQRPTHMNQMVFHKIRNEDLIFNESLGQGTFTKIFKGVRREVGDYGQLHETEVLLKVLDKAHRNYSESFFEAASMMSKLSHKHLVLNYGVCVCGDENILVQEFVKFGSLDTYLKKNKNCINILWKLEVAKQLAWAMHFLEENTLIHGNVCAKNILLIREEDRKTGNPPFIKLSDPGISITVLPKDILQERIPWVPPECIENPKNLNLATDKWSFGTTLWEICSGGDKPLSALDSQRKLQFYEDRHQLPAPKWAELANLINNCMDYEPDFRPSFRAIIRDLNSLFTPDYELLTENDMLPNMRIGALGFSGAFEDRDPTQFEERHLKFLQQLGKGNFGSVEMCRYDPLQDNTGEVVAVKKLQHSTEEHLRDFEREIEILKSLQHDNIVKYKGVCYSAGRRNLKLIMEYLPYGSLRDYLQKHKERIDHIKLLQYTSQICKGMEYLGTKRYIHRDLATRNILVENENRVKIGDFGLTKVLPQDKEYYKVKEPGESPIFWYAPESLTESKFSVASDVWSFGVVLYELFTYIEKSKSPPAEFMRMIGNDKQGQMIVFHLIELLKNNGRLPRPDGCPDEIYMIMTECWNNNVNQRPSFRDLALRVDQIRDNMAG
Procedure Text: phosphorylation enrichment, bacterial display (enrichment ratio); higher = better substrate or ligand; peptides without Tyr show the background
# phosphorylation enrichment >= 0.9 gives 1 (yes), anything below gives 0 (no)

| Residues | Target Entity | Category |
| --- | --- | --- |
| IRTIDYRYTVW [IDS_Y497] | Jak2 (UniProt O60674) | 1 (yes) |
| SVQVDYMKTIL [GLYATL2_Y127] | Jak2 (UniProt O60674) | 0 (no) |
| SVGGLYRDMGA [CBX8_Y321_G317V] | Jak2 (UniProt O60674) | 0 (no) |
| QMVGMYASSYM [AVPR2_Y124] | Jak2 (UniProt O60674) | 0 (no) |
| EDSEFYRAFEE [CASQ2_Y179_K180R_YF] | Jak2 (UniProt O60674) | 1 (yes) |
| NIRKKYFRAIL [CHD7_Y1217_Q1214R_YF] | Jak2 (UniProt O60674) | 0 (no) |

====

Each entry below lists one item and its recorded SH2 binding enrichment value.
Target Entity: Grb2 SH2 (UniProt P62993)
Sequence (P62993 whole entry, looked up): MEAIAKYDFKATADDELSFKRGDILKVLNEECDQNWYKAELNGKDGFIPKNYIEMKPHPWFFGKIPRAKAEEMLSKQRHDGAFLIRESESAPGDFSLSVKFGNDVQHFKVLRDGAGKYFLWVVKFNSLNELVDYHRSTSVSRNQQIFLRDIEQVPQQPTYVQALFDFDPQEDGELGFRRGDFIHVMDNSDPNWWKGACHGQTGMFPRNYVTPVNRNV
Procedure Text: SH2 binding enrichment of the phosphorylated peptide, bacterial display (enrichment ratio); higher = better substrate or ligand; peptides without Tyr show the background

| Residues | SH2 binding enrichment |
| --- | --- |
| EEAAGCAQESQ [CAMKV_Y491_Y491C] | 0.974 |
| KALKQYRASPS [DDX27_Y763_G766S] | 0.801 |
| SDFSRYARTSI [TERT_Y949_S948R_YF] | 1.05 |
| PLKFLYPNIDR [STAT1_Y668_K673R_YF] | 0.969 |
| MDFRSYPREFG [RBM10_Y44_YF] | 1.09 |
| SEELHYYVQNH [UQCRC2_Y207_F208Y] | 0.799 |
| FGMQLYQNFMH [GRB14_Y347_YF] | 2.83 |
| ALAHKYDGGGG [HBB_Y146_H147D] | 0.765 |
| RPAPQYPHQVP [ADAM12_Y895] | 1.06 |
| RPCVVYGGADI [DDX3X_Y301] | 0.823 |
| QIGRKYKKVRF [F8_Y442_R437Q] | 0.675 |
| LARDIYKNDFF [ROS1_Y2110_YF] | 1.41 |
| RPPFTYATLIH [FOXP3_Y342_R347H] | 1.08 |
| QCTSAYPLQPE [NANS_Y188] | 1.06 |
| YTGDIYSSSNL [LZTR1_Y141_N143S] | 1.03 |
| YSGDYYRIQGR [DDR2_Y741] | 1.01 |
| DASAVYLRDFQ [PLCG2_Y242_H244R] | 0.95 |
| NFFEFYVDDPL [GCHFR_Y48_P53L_YF] | 0.686 |
| RASDYYSQQMA [GBP6_Y334_A331S] | 0.887 |
| IFGVSYDEFRF [CFTR_Y512_YF] | 0.991 |
| CEHRGCLFLAI [TEK_Y897_Y897C_YF] | 0.934 |
| FPRAWCRRSIA [KIAA1109_Y4272_Y4272C] | 0.759 |
| KRLAVYIDEEA [EPM2A_Y304_P301L] | 0.85 |
| STSFDYCRVPM [BST2_Y8_YF] | 0.675 |
| SGFESYGSSSY [RPA2_Y9] | 0.672 |
| NMRSTYAKLAA [SEC22B_Y193_H190R] | 0.636 |
| LNPDGYEKAFE [CPXM2_Y427_YF] | 0.868 |
| LSSNLYFRWLT [CNGA3_Y168_P163L_YF] | 0.655 |
| GPGLVYRVANK [FLNB_Y1833_G1834R] | 0.999 |

====

Target Entity: FGFR3 (UniProt P22607)
Sequence (P22607 whole entry, looked up): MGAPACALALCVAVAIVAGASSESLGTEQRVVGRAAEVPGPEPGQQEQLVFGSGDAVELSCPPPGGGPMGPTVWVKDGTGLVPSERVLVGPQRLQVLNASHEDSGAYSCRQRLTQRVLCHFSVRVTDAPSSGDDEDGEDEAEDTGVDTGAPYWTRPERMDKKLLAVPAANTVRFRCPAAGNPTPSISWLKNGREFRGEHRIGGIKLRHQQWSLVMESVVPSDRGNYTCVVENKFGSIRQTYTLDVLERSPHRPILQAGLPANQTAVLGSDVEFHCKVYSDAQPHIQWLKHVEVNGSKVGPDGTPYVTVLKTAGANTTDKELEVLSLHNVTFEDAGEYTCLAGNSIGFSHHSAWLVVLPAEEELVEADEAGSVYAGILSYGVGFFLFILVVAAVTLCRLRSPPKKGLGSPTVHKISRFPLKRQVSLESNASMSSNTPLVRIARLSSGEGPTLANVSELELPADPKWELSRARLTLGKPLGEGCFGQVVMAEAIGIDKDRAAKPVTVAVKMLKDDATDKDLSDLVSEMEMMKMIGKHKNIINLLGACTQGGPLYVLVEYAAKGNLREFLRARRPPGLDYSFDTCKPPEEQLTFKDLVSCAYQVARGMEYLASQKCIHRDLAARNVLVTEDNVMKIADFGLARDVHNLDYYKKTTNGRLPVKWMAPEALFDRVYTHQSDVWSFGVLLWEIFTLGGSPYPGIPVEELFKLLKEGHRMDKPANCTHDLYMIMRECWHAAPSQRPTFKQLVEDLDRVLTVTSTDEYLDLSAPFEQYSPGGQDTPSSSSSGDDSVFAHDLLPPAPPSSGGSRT
Procedure Text: phosphorylation enrichment, bacterial display (enrichment ratio); higher = better substrate or ligand; peptides without Tyr show the background
# phosphorylation enrichment >= 0.6 gives yes, anything below gives no

| Residues | Category |
| --- | --- |
| VYLGAYDCFLP [SLC22A5_Y486_R488C] | yes |
| RQSHNYLGGFA [SYK_Y47_R45H] | no |
| GTYVIYVRFSG [FLNB_Y1687_G1691S] | yes |
| FGVVGYLAIMF [RNF175_Y155] | yes |
| AAVNGYAFGGG [ECHS1_Y137] | no |
| VHKEGYNKLNQ [ZNF676_Y98] | no |
| MPVDGYISGLL [PAK6_Y81] | yes |
| VRSNHYDPEED [TJP1_Y1346] | yes |
| GEDLSYGDLPP [IRS1_Y151_V154L] | yes |
| TINPIHEHVGF [CHN1_Y143_Y143H_YF] | no |
| TLKVGYTEKQR [EPHA3_Y659] | no |
| KIEGIYARDET [RPL35A_Y34_V33I] | yes |
| REVPVYTFSEP [FAM120B_Y368_D370Y_YF] | yes |

====

Target Entity: FGFR3 (UniProt P22607)
Procedure Text: phosphorylation enrichment, bacterial display (enrichment ratio); higher = better substrate or ligand; peptides without Tyr show the background
# phosphorylation enrichment >= 0.6 gives Y, anything below gives N

| Residues | Target Entity | Category |
| --- | --- | --- |
| ILDEAYVMASM [EGFR_Y764_V769M] | FGFR3 (UniProt P22607) | Y |
| ITNLLYHVVGG [GBA_Y412_W417G] | FGFR3 (UniProt P22607) | Y |
| HTKKNYGNSSV [HDX_Y197_A193T] | FGFR3 (UniProt P22607) | N |
| TKDTIYKQPMF [GBA_Y451_F450I] | FGFR3 (UniProt P22607) | N |
| STTSDYQWDFS [MTDH_Y364_V368F] | FGFR3 (UniProt P22607) | Y |
| AQESNYRLLRR [SLC20A2_Y377] | FGFR3 (UniProt P22607) | N |
| ENGPFYTSFPP [GDAP2_Y488_YF] | FGFR3 (UniProt P22607) | Y |
| NVGGKYSFLKV [GRM3_Y478_YF] | FGFR3 (UniProt P22607) | N |
| PLDGGYFTLQI [TP53_Y327_E326G] | FGFR3 (UniProt P22607) | Y |
| YNNYGYGNDGF [HNRNPH3_Y161] | FGFR3 (UniProt P22607) | Y |
| AKRKGYDMRVD [NEB_Y2770] | FGFR3 (UniProt P22607) | N |
| TLQSMSGCDVG [HLA-B_Y123_Y123S] | FGFR3 (UniProt P22607) | Y |

====

Target Entity: EPHB1 (UniProt P54762)
Sequence (P54762 whole entry, looked up): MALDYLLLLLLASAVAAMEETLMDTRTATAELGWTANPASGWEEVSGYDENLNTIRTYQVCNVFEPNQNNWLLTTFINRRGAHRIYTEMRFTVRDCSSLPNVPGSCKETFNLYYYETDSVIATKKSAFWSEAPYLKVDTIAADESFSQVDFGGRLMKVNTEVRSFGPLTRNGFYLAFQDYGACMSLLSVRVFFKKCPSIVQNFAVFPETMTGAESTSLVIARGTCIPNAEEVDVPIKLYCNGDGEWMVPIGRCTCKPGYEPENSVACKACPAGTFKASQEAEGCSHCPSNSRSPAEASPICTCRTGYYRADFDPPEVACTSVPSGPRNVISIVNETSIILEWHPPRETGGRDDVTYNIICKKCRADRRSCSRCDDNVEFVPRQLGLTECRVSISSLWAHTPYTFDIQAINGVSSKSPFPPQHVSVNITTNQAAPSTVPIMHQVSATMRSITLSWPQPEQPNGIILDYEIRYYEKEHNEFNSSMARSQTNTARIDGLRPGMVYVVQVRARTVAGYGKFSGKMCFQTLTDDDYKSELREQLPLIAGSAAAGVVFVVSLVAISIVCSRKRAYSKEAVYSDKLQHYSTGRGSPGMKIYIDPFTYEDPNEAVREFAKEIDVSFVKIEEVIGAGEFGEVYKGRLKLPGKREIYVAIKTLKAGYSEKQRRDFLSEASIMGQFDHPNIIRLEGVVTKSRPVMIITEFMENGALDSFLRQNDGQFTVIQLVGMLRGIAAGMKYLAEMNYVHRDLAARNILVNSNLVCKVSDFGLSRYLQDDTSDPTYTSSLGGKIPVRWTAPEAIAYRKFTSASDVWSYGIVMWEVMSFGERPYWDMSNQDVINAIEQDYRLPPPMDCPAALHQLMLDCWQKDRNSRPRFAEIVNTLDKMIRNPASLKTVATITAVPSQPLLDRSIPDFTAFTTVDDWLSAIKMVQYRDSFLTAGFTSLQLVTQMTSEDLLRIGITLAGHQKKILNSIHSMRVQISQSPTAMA
Procedure Text: phosphorylation enrichment, bacterial display (enrichment ratio); higher = better substrate or ligand; peptides without Tyr show the background

| Residues | Target Entity | phosphorylation enrichment |
| --- | --- | --- |
| IENKPYGMSDP [RET_Y1062_L1061P] | EPHB1 (UniProt P54762) | 0.55 |
| RLEPVYFVAPA [LAMC2_Y250_D247E] | EPHB1 (UniProt P54762) | 7.02 |
| KLCHLYQDHMQ [WNT5A_Y86] | EPHB1 (UniProt P54762) | 0.54 |
| AGNPAYRSFSN [IL4R_Y497] | EPHB1 (UniProt P54762) | 0.347 |
| GFKVRYATGSI [FGFR1_Y210_W213G_YF] | EPHB1 (UniProt P54762) | 0.473 |
| KLSCSYSHWSA [C4BPA_Y470] | EPHB1 (UniProt P54762) | 0.716 |
| GIYSGYDDAWD [POLR1C_Y36_N32I] | EPHB1 (UniProt P54762) | 2.36 |
| FGCTFYNQAIM [MCCC2_Y196_R193C] | EPHB1 (UniProt P54762) | 0.825 |
| KCCCIYEKPRS [PPP1R11_Y64_A69S] | EPHB1 (UniProt P54762) | 1.03 |
| REVPVYTFSEP [FAM120B_Y368_D370Y_YF] | EPHB1 (UniProt P54762) | 1.9 |
| RPAPQYPHQVP [ADAM12_Y895] | EPHB1 (UniProt P54762) | 0.572 |
| SGVSYYINLCQ [IGF2R_Y2025_N2020S] | EPHB1 (UniProt P54762) | 0.682 |
| NHRNQYQALKP [CLSPN_Y887] | EPHB1 (UniProt P54762) | 0.375 |
| FAELMYTGFWH [ASS1_Y322_V321M] | EPHB1 (UniProt P54762) | 3.52 |

These data points were gathered from the supplement of paper PMC10065799.
